Molecular target: JAK2 (Homo sapiens)
Construct: purchased Carna Biosciences, Inc
Assay: JAK tyrosine kinase inhibitory activity in the presence of 1 mM ATP (ELISA), JAK2
Type: biochemical
Where a name gives a salt, the structure may show the parent alone.
EXPERIMENTAL ENDPOINT: IC50

For O=C(NC1CCN(C(=O)c2cc(NC3CCNCC3)nc(-c3cnn4ccsc34)n2)CC1)C1CC1 [Example 181, dihydrochloride] , what is its reported IC50?
> 10000 nM

###

Below, each of the compounds is paired with its reported IC50 value.
Biological target: JAK2 (Homo sapiens, UniProt O60674)
Construct: purchased Carna Biosciences, Inc
Sequence (O60674 whole entry): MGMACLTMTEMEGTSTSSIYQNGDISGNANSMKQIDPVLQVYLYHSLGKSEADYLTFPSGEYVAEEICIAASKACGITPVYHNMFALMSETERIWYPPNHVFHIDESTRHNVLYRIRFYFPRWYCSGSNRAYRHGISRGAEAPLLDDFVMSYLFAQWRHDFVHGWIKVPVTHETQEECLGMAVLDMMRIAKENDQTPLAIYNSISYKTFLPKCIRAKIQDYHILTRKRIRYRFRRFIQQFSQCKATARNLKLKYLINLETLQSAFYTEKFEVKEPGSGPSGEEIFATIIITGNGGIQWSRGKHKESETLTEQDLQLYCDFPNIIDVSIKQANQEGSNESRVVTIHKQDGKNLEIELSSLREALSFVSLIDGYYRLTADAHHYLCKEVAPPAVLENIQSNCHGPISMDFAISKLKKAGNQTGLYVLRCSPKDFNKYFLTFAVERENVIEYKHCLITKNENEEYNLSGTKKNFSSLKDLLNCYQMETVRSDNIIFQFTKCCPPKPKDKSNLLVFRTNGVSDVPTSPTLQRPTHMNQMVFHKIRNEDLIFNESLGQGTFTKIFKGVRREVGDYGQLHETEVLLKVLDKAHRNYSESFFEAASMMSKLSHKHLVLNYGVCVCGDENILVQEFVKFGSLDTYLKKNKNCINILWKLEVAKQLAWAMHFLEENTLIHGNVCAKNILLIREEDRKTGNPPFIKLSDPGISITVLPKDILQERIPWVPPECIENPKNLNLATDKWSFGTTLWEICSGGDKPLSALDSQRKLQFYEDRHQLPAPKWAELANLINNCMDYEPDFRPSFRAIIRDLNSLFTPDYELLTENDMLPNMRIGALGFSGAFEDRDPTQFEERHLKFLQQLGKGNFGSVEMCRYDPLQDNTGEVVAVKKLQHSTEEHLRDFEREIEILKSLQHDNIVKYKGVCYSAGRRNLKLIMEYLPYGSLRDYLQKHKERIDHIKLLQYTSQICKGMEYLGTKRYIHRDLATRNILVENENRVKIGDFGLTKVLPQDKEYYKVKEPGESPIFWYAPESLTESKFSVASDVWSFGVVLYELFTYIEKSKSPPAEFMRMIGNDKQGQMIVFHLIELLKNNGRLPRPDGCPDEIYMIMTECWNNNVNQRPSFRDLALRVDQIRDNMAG
Assay: JAK tyrosine kinase inhibitory activity in the presence of 1 mM ATP (ELISA), JAK2
Type: biochemical
Structures can show the parent of a compound that is named as a salt.

A selection of reference data follows.
O=C(NC1CCN(C(=O)c2cc(NC3COC3)nc(-c3cnn4ccsc34)n2)CC1)C1CC1 [Example 173] | > 10000 nM
O=C(NC1CCN(C(=O)c2cc(NCC3CNC3)nc(-c3cnn4ccsc34)n2)CC1)C1CC1 [Example 78] | > 10000 nM
N#CCC(=O)N1CC[C@@H](Nc2cc(C(=O)N3CCC(NC(=O)C4CC4)CC3)nc(-c3cnn4ccsc34)n2)C1 [Example 191] | > 10000 nM
COC(=O)NC1CCN(C(=O)c2cc(N[C@H]3CC[C@@H](O)CC3)nc(-c3cnn4ccsc34)n2)CC1 [Example 177] | > 10000 nM
COC(=O)NC1CCN(C(=O)c2cc(NC3CCNCC3)nc(-c3cnn4ccsc34)n2)CC1 [Example 143, dihydrochloride] | > 10000 nM
COC(=O)NC1CCN(C(=O)c2cc(NC3CCN(C(=O)OC(C)(C)C)CC3)nc(-c3cnn4ccsc34)n2)CC1 [Example 142] | > 10000 nM
CCC(=O)N1CCC(Nc2cc(C(=O)N3CCC(NC(=O)OC)CC3)nc(-c3cnn4ccsc34)n2)CC1 [Example 198] | > 10000 nM

Provide the documented IC50 with JAK2 (Homo sapiens, UniProt O60674) as the system for COC(=O)NC1CCN(C(=O)c2cc(N[C@@H]3CCN(C(=O)CC#N)C3)nc(-c3cnn4ccsc34)n2)CC1 [Example 201]
> 10000 nM
